- Target Or System: human plasma kallikrein (Homo sapiens)
- Assay Text: Kallikrein inhibition FLINT assay with quenched AMC peptide substrate Z-Gly-Pro-Arg-AMC (end point EP or kinetic KIN reads)
- Type: biochemical
- Assay Setup: kinetic reads at 5 min intervals over 30 min; read-out: Kallikrein (KIN) IC50
So basically, if IC50 comes in under 0.03 µM it's 1, and if it's 0.03 µM or more it's 0.

**Q:** Does the reported IC50 of the following molecule sit strictly below 0.03 µM? [O-][n+]1cc(-c2c(-n3cc(Cl)nn3)ccc(Cl)c2F)ccc1[C@H](Cn1cc(F)cn1)n1cc(-c2c(F)cnn2C(F)F)cn1 [Example P634]
**A:** 0

**Q:** Does the reported IC50 of the following molecule sit strictly below 0.03 µM? Cn1nnc(Cl)c1-c1cnn([C@H](CCOC(F)F)c2ccc(-c3c(-n4cnnn4)ccc(Cl)c3F)c[n+]2[O-])c1 [Example P726]
**A:** 1

**Q:** Does the reported IC50 of the following molecule sit strictly below 0.03 µM? Cn1ncc(F)c1-c1cnn([C@H](CCOC(F)F)c2ccc(-c3c(-n4cc(Cl)nn4)ccc(Cl)c3F)c[n+]2[O-])c1 [Example P680]
**A:** 1

**Q:** Does the reported IC50 of the following molecule sit strictly below 0.03 µM? O=C(O)c1ccc(-c2cnn(C(c3ccc(-c4cc(Cl)ccc4-n4cnnn4)c[n+]3[O-])C(O)c3ccccc3)c2)cc1 (single isomer, unassigned) [Example P119]
**A:** 0

**Q:** Does the reported IC50 of the following molecule sit strictly below 0.03 µM? [O-][n+]1cc(-c2c(-n3cnnn3)ccc(Cl)c2F)ccc1C(Cn1cc(F)cn1)n1cc(-c2cc(C(F)(F)F)ncn2)cn1 (stereo not shown) [Example P468]
**A:** 0

**Q:** Does the reported IC50 of the following molecule sit strictly below 0.03 µM? [O-][n+]1cc(-c2c(-n3cnnn3)ccc(Cl)c2F)ccc1[C@@H](Cc1ccc(C(F)(F)F)nc1)n1cc(-c2ncnn2C(F)F)cn1 [Example P783]
**A:** 1

---

- Target Or System: human plasma kallikrein (Homo sapiens, UniProt P03952)
- Sequence (P03952 391-638 limits assumed): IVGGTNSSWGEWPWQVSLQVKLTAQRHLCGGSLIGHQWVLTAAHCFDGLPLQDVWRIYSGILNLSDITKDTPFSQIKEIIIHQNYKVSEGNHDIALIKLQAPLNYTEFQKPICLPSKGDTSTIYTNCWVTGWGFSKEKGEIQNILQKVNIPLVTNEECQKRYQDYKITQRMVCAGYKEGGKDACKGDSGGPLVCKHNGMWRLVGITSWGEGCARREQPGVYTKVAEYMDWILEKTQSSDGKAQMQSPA
- Sequence (P03952 20-390 partner limits assumed): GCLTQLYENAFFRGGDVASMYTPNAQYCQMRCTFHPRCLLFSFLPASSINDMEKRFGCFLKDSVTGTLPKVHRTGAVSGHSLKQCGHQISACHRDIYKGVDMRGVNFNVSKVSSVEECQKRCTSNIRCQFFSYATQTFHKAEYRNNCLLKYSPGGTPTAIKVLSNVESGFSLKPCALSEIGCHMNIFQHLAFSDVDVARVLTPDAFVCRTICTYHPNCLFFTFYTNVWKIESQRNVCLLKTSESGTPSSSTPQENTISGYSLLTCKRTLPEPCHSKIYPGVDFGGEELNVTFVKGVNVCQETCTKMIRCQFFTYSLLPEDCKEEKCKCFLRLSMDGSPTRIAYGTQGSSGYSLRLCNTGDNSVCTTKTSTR
- Assay Text: Kallikrein inhibition FLINT assay with quenched AMC peptide substrate Z-Gly-Pro-Arg-AMC (end point EP or kinetic KIN reads)
- Format: biochemical
- Assay Setup: kinetic reads at 5 min intervals over 30 min; read-out: Kallikrein (KIN) IC50
Readout: pIC50
Scale for pIC50: -log10 of concentration given in mol/L; no unit attached.

The molecule listed as COCC(=O)N(C)CC(c1ccc(-c2c(-n3cnnn3)ccc(Cl)c2F)c[n+]1[O-])n1cc(-c2ccnc(C(F)(F)F)c2)cn1 (stereo not drawn) [Example P427] shows pIC50 equal to 7.18

The molecule listed as [2H]C([2H])([2H])C([2H])([2H])CC(c1ccc(-c2c(-n3cc(Cl)nn3)ccc(Cl)c2F)c[n+]1[O-])n1cc(-c2ccc(C(N)=O)c(F)c2)cn1 (stereo not drawn) [Example P926] shows pIC50 equal to 7.72

The molecule listed as COC(=O)Nc1ccc(-c2cnn(C(Cc3ccc(Cl)cc3)c3ccc(-c4c(-n5cnnn5)ccc(Cl)c4F)c[n+]3[O-])c2)cc1 (single isomer, unassigned) [Example P159] shows pIC50 equal to 6.67

---

Field: pIC50. Provide a value for each of the molecules that follow.
Scale for pIC50: -log10 of concentration given in mol/L; no unit attached.

Tested on Factor XIa (Homo sapiens, UniProt P03951): Nc1ccc(-c2cnn(C(CC3CC3)c3ccc(-c4c(-n5cnnn5)ccc(Cl)c4F)c[n+]3[O-])c2)cn1 (centres unmarked) [Example P24] . Observed pIC50: 8.31

Tested on Factor XIa (Homo sapiens, UniProt P03951): O=C(O)c1ccc(-c2cnn([C@H](CC3CC3)c3ccc(-c4cc(Cl)ccc4-n4cnnn4)c[n+]3[O-])c2)cc1 [Example P6] . Observed pIC50: 8.68

Tested on Factor XIa (Homo sapiens, UniProt P03951): Nc1ccc(-c2cnn(C(CC3CC3)c3ccc(-c4cc(Cl)ccc4-n4cnnn4)c[n+]3[O-])c2)c(Cl)n1 (single isomer, unassigned) [Example P49] . Observed pIC50: 8.47

Tested on Factor XIa (Homo sapiens, UniProt P03951): CC(N)c1ccc(-c2cnn(C(Cc3ccccc3)c3ccc(-c4cc(Cl)ccc4-n4cnnn4)c[n+]3[O-])c2)cc1 (centres unmarked) [Example P47] . Observed pIC50: 7.65

Tested on Factor XIa (Homo sapiens, UniProt P03951): O=C(O)c1ccc(-c2cnn(C(c3cn(-c4ccccc4)nn3)c3ccc(-c4c(-n5cnnn5)ccc(Cl)c4F)c[n+]3[O-])c2)cc1 (centres unmarked) [Example P35] . Observed pIC50: 6.77

---

Field: IC50. Provide a value for each of the compounds that follow.
- Target Or System: human plasma kallikrein (Homo sapiens, UniProt P03952)
- Assay Text: Kallikrein inhibition FLINT assay with quenched AMC peptide substrate Z-Gly-Pro-Arg-AMC (end point EP or kinetic KIN reads)
- Format: biochemical
- Assay Setup: kinetic reads at 5 min intervals over 30 min; read-out: Kallikrein (KIN) IC50
State the answer as a number, implicitly in nM.

The compound listed as CCC(c1cc(OC)c(-c2cc(Cl)ccc2-n2cc(C(F)(F)F)nn2)c[n+]1[O-])n1cc(-c2ccc(C(N)=O)c(F)c2)cn1 (single isomer, unassigned) [Example P877] shows IC50 equal to 220

The compound listed as [O-][n+]1cc(-c2cc(Cl)ccc2-n2cnnn2)ccc1C(Cc1ccc(Cl)cc1)n1cc(-c2ccncc2)cn1 (stereo not drawn) shows IC50 equal to 15.3

The compound listed as "Cn1cc(-c2cnn([C@H](Cc3ccn(C(F)F)n3)c3ccc(-c4c(-n5cc(C#N)nn5)ccc(Cl)c4F)c[n+]3[O-])c2)c(Cl)n1" shows IC50 equal to 2.2

The compound listed as Cc1cc(C(N)=O)sc1-c1cnn(C(CC2CC2)c2ccc(-c3c(-n4cc(C(F)(F)F)nn4)ccc(Cl)c3F)c[n+]2[O-])c1 (single isomer, unassigned) shows IC50 equal to 222

The compound listed as "Cn1ccc(C[C@H](c2ccc(-c3c(-n4cc(C(F)(F)F)nn4)ccc(Cl)c3F)c[n+]2[O-])n2cc(-c3ccc(C(=O)O)cc3)cn2)n1" shows IC50 equal to 3.7

The compound listed as "COCC[C@H](c1ccc(-c2c(C(F)F)ccc(Cl)c2F)c[n+]1[O-])n1cc(-c2ccc(C(=O)O)cc2)cn1" shows IC50 equal to 50.5

The compound listed as [O-][n+]1cc(-c2c(-n3cnnn3)ccc(Cl)c2F)ccc1C(Cn1cc(F)cn1)n1cc(-c2ccncc2)cn1 (stereo not drawn) shows IC50 equal to 8.1

The compound listed as O=C(NC1CC1)c1ccc(-c2cnn(C(Cc3ccc(F)cc3)c3ccc(-c4c(-c5cnco5)ccc(Cl)c4F)c[n+]3[O-])c2)cc1 (stereo not drawn) shows IC50 equal to 189

The compound listed as "COCC[C@H](c1ccc(-c2c(-n3cnnn3)ccc(Cl)c2F)c[n+]1[O-])n1cc(-c2c(Cl)cnn2C(F)F)cn1" shows IC50 equal to 217

The compound listed as O=C(O)c1ccc(-c2cnn(C(CC3CC3C(=O)N3CCCC3)c3ccc(-c4cc(Cl)ccc4-n4cnnn4)c[n+]3[O-])c2)cc1 (stereo not drawn) shows IC50 equal to 635

The compound listed as O=C(c1ccn(CC(c2ccc(-c3c(-n4cnnn4)ccc(Cl)c3F)c[n+]2[O-])n2cc(-c3ccnc(C(F)(F)F)c3)cn2)n1)N1CCCCC1 (single isomer, unassigned) shows IC50 equal to 12

The compound listed as "[2H]C([2H])(C[C@@H](c1ccc(-c2c(-n3cnnn3)ccc(Cl)c2F)c[n+]1[O-])n1cc(-c2cn(C)nc2Cl)cn1)OC(F)F" shows IC50 equal to 417

---

Field: pIC50. Provide a value for each of the compounds that follow.
- Target Or System: human plasma kallikrein (Homo sapiens)
- Assay Text: Kallikrein inhibition FLINT assay with quenched AMC peptide substrate Z-Gly-Pro-Arg-AMC (end point EP or kinetic KIN reads)
- Assay type: biochemical
- Assay Setup: kinetic reads at 5 min intervals over 30 min; read-out: Kallikrein (KIN) IC50
Scale for pIC50: -log10 of concentration given in mol/L; no unit attached.

The compound listed as CC(C)(C)c1cc(-c2cnn(C(Cn3cc(F)cn3)c3ccc(-c4c(-n5cnnn5)ccc(Cl)c4F)c[n+]3[O-])c2)cc[n+]1[O-] (stereo not drawn) shows pIC50 equal to 7.02

The compound listed as COc1cnc(F)c(-c2cnn(C(CC3CC3)c3ccc(-c4c(-n5cnnn5)ccc(Cl)c4F)c[n+]3[O-])c2)c1 (stereo not drawn) shows pIC50 equal to 6.60

The compound listed as "[2H]C([2H])([2H])n1nccc1-c1cnn([C@@H](CCOC(F)F)c2ccc(-c3c(-n4cnnn4)ccc(Cl)c3F)c[n+]2[O-])c1" shows pIC50 equal to 6.68

The compound listed as O=C(O)C1CCCN(C(=O)C2CC2CC(c2ccc(-c3c(-n4cnnn4)ccc(Cl)c3F)c[n+]2[O-])n2cc(-c3ccccc3)cn2)C1 (stereo not drawn) [Example P224] shows pIC50 equal to 6.23

The compound listed as COCc1ccn(CC(c2ccc(-c3c(-n4cnnn4)ccc(Cl)c3F)c[n+]2[O-])n2cc(-c3ccnc(C(F)(F)F)c3)cn2)n1 (single isomer, unassigned) [Example P440] shows pIC50 equal to 7.15

The compound listed as [O-][n+]1cc(-c2c(-n3cnnn3)ccc(Cl)c2F)ccc1C(Cn1ccc(C(F)(F)F)n1)n1cc(-c2ccnc(F)c2)cn1 (stereo not drawn) shows pIC50 equal to 7.63

The compound listed as "[O-][n+]1cc(-c2c(-n3cnnn3)ccc(Cl)c2F)ccc1[C@@H](CC1CC1)n1cc(-c2c(F)cnn2C(F)F)cn1" shows pIC50 equal to 6.78

The compound listed as "[O-][n+]1cc(-c2c(-n3cnnn3)ccc(Cl)c2F)ccc1[C@@H](CC1CC1)n1cc(-c2nnn(C(F)F)c2Cl)cn1" shows pIC50 equal to 6.54

The compound listed as COc1ccc(CC(c2ccc(-c3cc(Cl)ccc3-n3cnnn3)c[n+]2[O-])n2cc(-c3ccc(C(=O)NC4CC4)cc3)cn2)cc1 (stereo not drawn) shows pIC50 equal to 7.64

The compound listed as COC(=O)N1CCCC(c2cnn(C(CC3CC3)c3ccc(-c4c(-n5cnnn5)ccc(Cl)c4F)c[n+]3[O-])c2)C1 (stereo not drawn) shows pIC50 equal to 6.19

The compound listed as CN(C)C(=O)N(C)CC(c1ccc(-c2c(-n3cnnn3)ccc(Cl)c2F)c[n+]1[O-])n1cc(-c2ccnc(C(F)(F)F)c2)cn1 (stereo not drawn) shows pIC50 equal to 6.95

The compound listed as NC(=O)C1CC1CC(c1ccc(-c2cc(Cl)ccc2-n2cnnn2)c[n+]1[O-])n1cc(-c2ccc(C(=O)O)cc2)cn1 (stereo not drawn) [Example P114] shows pIC50 equal to 6.74
